Quick list: pKd per entry.
- target: Phosphatidylinositol 4,5-bisphosphate 3-kinase catalytic subunit beta isoform (Homo sapiens)
- Sequence (P42338 whole entry, the tested form may be a part, canonical isoform): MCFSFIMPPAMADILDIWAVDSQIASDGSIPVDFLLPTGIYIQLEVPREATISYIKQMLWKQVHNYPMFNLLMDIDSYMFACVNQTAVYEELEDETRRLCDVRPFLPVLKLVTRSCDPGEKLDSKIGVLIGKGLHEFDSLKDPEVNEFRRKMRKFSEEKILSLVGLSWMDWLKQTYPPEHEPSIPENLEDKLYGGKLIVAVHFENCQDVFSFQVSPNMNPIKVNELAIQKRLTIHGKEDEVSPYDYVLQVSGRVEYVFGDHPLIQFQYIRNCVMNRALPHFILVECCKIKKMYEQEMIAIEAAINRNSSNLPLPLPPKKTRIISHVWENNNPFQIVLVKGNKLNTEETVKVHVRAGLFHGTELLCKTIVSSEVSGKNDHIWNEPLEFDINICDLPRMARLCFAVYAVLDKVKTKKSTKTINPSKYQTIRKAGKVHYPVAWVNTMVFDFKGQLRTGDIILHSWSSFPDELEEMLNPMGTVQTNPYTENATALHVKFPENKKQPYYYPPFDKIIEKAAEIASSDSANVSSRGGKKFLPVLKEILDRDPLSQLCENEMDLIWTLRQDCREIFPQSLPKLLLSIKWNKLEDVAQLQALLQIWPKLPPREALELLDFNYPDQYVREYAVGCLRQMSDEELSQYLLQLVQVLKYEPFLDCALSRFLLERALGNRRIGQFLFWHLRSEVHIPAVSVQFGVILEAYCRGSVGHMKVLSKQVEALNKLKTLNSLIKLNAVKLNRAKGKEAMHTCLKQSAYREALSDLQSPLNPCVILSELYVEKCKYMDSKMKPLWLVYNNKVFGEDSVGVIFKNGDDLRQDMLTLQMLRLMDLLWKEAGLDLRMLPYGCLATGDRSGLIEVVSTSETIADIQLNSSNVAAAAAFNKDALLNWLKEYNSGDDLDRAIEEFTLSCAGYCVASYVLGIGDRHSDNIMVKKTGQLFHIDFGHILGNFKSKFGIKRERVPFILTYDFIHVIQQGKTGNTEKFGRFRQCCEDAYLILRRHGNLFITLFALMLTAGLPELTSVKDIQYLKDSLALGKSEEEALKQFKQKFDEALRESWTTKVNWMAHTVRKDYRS
- experiment description: Binding affinity to human PI3Kbeta (118 to 1070 residues) expressed in mammalian expression system by KINOMEscan assay
pKd: −log10 of the molar value.
property name: pKd

>  <compound>
Cc1c(Nc2c(CO)nc3c(N)cc(N4CCOC(CO)C4)nn23)cccc1C(F)(F)F (stereo in doubt; 66)

>  <experimental value>
6.86

$$$$
>  <compound>
CC(=O)NCc1nc2c(-c3cnc[nH]3)cc(N3CCOCC3)nn2c1Cc1cccc(C(F)(F)F)c1C

>  <experimental value>
8.70

$$$$
>  <compound>
Cc1nc2c(-c3cnc[nH]3)cc(N3CCOCC3)nn2c1Nc1cccc(C(F)(F)F)c1C

>  <experimental value>
8.59

$$$$
>  <compound>
Cc1c(Nc2c(CO)nc3c(N)cc(N4CCOC(CO)C4)nn23)cccc1C(F)(F)F (stereo in doubt; 65)

>  <experimental value>
8.89

$$$$
>  <compound>
Cc1nc2c(N)cc(N3CCOCC3)nn2c1Cc1cccc(C(F)(F)F)c1C

>  <experimental value>
8.22

$$$$
